- Test system: Saccharomyces cerevisiae;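 further: PSI is a weighted mean of sequencing reads over stability bins, variants kept only with over 10 reads, mCherry proximal and sfGFP distal, peptide attached via GGGS linker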
- experiment_summary: protein stability index of tFT-peptide fusion (C-terminal peptide) (PSI (0-1 scale)); higher = more stable (slower turnover)
- condition_info: genetic background: wild type; temperature: 30 C
protein stability index vs 0.7: at or above is 1.0, below is 0.0.

>  <seq_string>
YVDSGLTLIHLA

>  <assigned_class>
0.0

$$$$
>  <seq_string>
LYPGYIVVANYK

>  <assigned_class>
0.0

$$$$
>  <seq_string>
PPAPRLPPPLPP

>  <assigned_class>
0.0

$$$$
>  <seq_string>
QRVIELVLISNM

>  <assigned_class>
0.0

$$$$
>  <seq_string>
VNTNLRSTRSNT

>  <assigned_class>
1.0

$$$$
>  <seq_string>
FEVLINIWFLSA

>  <assigned_class>
0.0

$$$$
>  <seq_string>
FSVPPLPLPPRL

>  <assigned_class>
1.0

$$$$

Now for a further sequence.
Could you tell me if the measured protein stability index of `PSHTPLPPSSLS` reaches 0.7 or more?
1.0
